Tested on: HeLa Kyoto
assayComment: thermal stability score vs G1/S (z-score of summed log2 fold changes over temperatures); higher = more thermally stable than in G1/S
recordedConditions: cell cycle stage: early G1 (4.5 h after nocodazole release)
readoutName: thermal stability score
Give only the figure.

# chain, thermal stability score
measured = [
    ("MYLQVETRTSSRLHLKRAPGIRSWSLLVGILSIGLAAAYYSGDSLGWKLFYVTGCLFVAVQNLEDWEEAIFDKSTGKVVLKTFSLYKKLLTLFRAGHDQVVVLLHDVRDVSVEEEKVRYFGKGYMVVLRLATGFSHPLTQSAVMGHRSDVEAIAKLITSFLELHCLESPTELSQSSDSEAGDPASQS [C17ORF62]", -1.46),
]

Next sequence, thermal stability score to be filled in.
q: Which thermal stability score value is on record for MSDLLLLGLIGGLTLLLLLTLLAFAGYSGLLAGVEVSAGSPPIRNVTVAYKFHMGLYGETGRLFTESCSISPKLRSIAVYYDNPHMVPPDKCRCAVGSILSEGEESPSPELIDLYQKFGFKVFSFPAPSHVVTATFPYTTILSIWLATRRVHPALDTYIKERKLCAYPRLEIYQEDQIHFMCPLARQGDFYVPEMKETEWKWRGLVEAIDTQVDGTGADTMSDTSSVSLEVSPGSRETSAATLSPGASSRGWDDGDTRSEHSYSESGASGSSFEELDLEGEGPLGESRLDPGTEPLGTTKWLWEPTAPEKGKE [TEX264] ?
a: 0.0754

---

Listed here are sequences together with their documented solubility in G1/S (log2).
System: HeLa Kyoto
assayComment: solubility in G1/S (NP-40 vs SDS abundance) (log2 ratio); higher = more soluble
recordedConditions: cell cycle stage: G1/S
# print the numeric value only

q: Request: solubility in G1/S (log2), test system HeLa Kyoto, entry MATHGQTCARPMCIPPSYADLGKAARDIFNKGFGFGLVKLDVKTKSCSGVEFSTSGSSNTDTGKVTGTLETKYKWCEYGLTFTEKWNTDNTLGTEIAIEDQICQGLKLTFDTTFSPNTGKKSGKIKSSYKRECINLGCDVDFDFAGPAIHGSAVFGYEGWLAGYQMTFDSAKSKLTRNNFAVGYRTGDFQLHTNVNDGTEFGGSIYQKVCEDLDTSVNLAWTSGTNCTRFGIAAKYQLDPTASISAKVNNSSLIGVGYTQTLRPGVKLTLSALVDGKSINAGGHKVGLALELEA [VDAC2]
a: -0.125

q: Could you share what solubility in G1/S (log2) was measured for MGQREMWRLMSRFNAFKRTNTILHHLRMSKHTDAAEEVLLEKKGCTGVITLNRPKFLNALTLNMIRQIYPQLKKWEQDPETFLIIIKGAGGKAFCAGGDIRVISEAEKAKQKIAPVFFREEYMLNNAVGSCQKPYVALIHGITMGGGVGLSVHGQFRVATEKCLFAMPETAIGLFPDVGGGYFLPRLQGKLGYFLALTGFRLKGRDVYRAGIATHFVDSEKLAMLEEDLLALKSPSKENIASVLENYHTESKIDRDKSFILEEHMDKINSCFSANTVEEIIENLQQDGSSFALEQLKVINKMSPTSLKITLRQLMEGSSKTLQEVLTMEYRLSQACMRGHDFHEGVRAVLIDKDQSPKWKPADLKEVTEEDLNNHFKSLGSSDLKF [HIBCH] , tested on HeLa Kyoto?
a: 0.343

---

Measured solubility in G1/S (log2) accompanies every entry in the list below.
Test system: HeLa Kyoto
assayComment: solubility in G1/S (NP-40 vs SDS abundance) (log2 ratio); higher = more soluble
recordedConditions: cell cycle stage: G1/S
Returns: the value as a bare number; no unit string appended.

Example sequences with recorded solubility in G1/S (log2):
# chain, solubility in G1/S (log2)
rows = [
    ("MYYKFSGFTQKLAGAWASEAYSPQGLKPVVSTEAPPIIFATPTKLTSDSTVYDYAGKNKVPELQKFFQKADGVPVYLKRGLPDQMLYRTTMALTVGGTIYCLIALYMASQPKNK [COX7A2L]", -0.0362),
    ("MHARGPHGQLSPALPLASSVLMLLMSTLWLVGAGPGLVLAPELLLDPWQVHRLLTHALGHTALPGLLLSLLLLPTVGWQQECHLGTLRFLHASALLALASGLLAVLLAGLGLSSAAGSCGYMPVHLAMLAGEGHRPRRPRGALPPWLSPWLLLALTPLLSSEPPFLQLLCGLLAGLAYAAGAFRWLEPSERRLQVLQEGVLCRTLAGCWPLRLLATPGSLAELPVTHPAGVRPPIPGPPYVASPDLWSHWEDSALPPPSLRPVQPTWEGSSEAGLDWAGASFSPGTPMWAALDEQMLQEGIQASLLDGPAQEPQSAPWLSKSSVSSLRLQQLERMGFPTEQAVVALAATGRVEGAVSLLVGGQVGTETLVTHGKGGPAHSEGPGPP [RHBDD3]", -0.0767),
]

Moving on to the next sequence.
q: Data request, read-out solubility in G1/S (log2), for MSSTQFNKGPSYGLSAEVKNRLLSKYDPQKEAELRTWIEGLTGLSIGPDFQKGLKDGTILCTLMNKLQPGSVPKINRSMQNWHQLENLSNFIKAMVSYGMNPVDLFEANDLFESGNMTQVQVSLLALAGKAKTKGLQSGVDIGVKYSEKQERNFDDATMKAGQCVIGLQMGTNKCASQSGMTAYGTRRHLYDPKNHILPPMDHSTISLQMGTNKCASQVGMTAPGTRRHIYDTKLGTDKCDNSSMSLQMGYTQGANQSGQVFGLGRQIYDPKYCPQGTVADGAPSGTGDCPDPGEVPEYPPYYQEEAGY [CNN2]
a: 0.456

---

Below: a set of entries, each annotated with reported solubility change mitosis (log2).
Tested on: HeLa Kyoto
assayComment: solubility change mitosis vs G1/S (difference of NP-40 vs SDS log2 ratios) (log2 ratio difference); higher = more soluble in mitosis

q: State the recorded solubility change mitosis (log2) for this entry: MDPSLLRERELFKKRALSTPVVEKRSASSESSSSSSKKKKTKVEHGGSSGSKQNSDHSNGSFNLKALSGSSGYKFGVLAKIVNYMKTRHQRGDTHPLTLDEILDETQHLDIGLKQKQWLMTEALVNNPKIEVIDGKYAFKPKYNVRDKKALLRLLDQHDQRGLGGILLEDIEEALPNSQKAVKALGDQILFVNRPDKKKILFFNDKSCQFSVDEEFQKLWRSVTVDSMDEEKIEEYLKRQGISSMQESGPKKVAPIQRRKKPASQKKRRFKTHNEHLAGVLKDYSDITSSK [GTF2E2]
a: 0.135

q: Dear colleague, I am looking for the recorded solubility change mitosis (log2) of the following sequence: MGSAGLSRLHGLFAVYKPPGLKWKHLRDTVELQLLKGLNARKPPAPKQRVRFLLGPMEGSEEKELTLTATSVPSFINHPLVCGPAFAHLKVGVGHRLDAQASGVLVLGVGHGCRLLTDMYNAHLTKDYTVRGLLGKATDDFREDGRLVEKTTYDHVTREKLDRILAVIQGSHQKALVMYSNLDLKTQEAYEMAVRGLIRPMNKSPMLITGIRCLYFAPPEFLLEVQCMHETQKELRKLVHEIGLELKTTAVCTQVRRTRDGFFTLDSALLRTQWDLTNIQDAIRAATPQVAAELEKSLSPGLDTKQLPSPGWSWDSQGPSSTLGLERGAGQ [TRUB2]
a: 0.16

q: Return reported solubility change mitosis (log2); argument: MPLLVEGRRVRLPQSAGDLVRAHPPLEERARLLRGQSVQQVGPQGLLYVQQRELAVTSPKDGSISILGSDDATTCHIVVLRHTGNGATCLTHCDGTDTKAEVPLIMNSIKSFSDHAQCGRLEVHLVGGFSDDRQLSQKLTHQLLSEFDRQEDDIHLVTLCVTELNDREENENHFPVIYGIAVNIKTAEIYRASFQDRGPEEQLRAARTLAGGPMISIYDAETEQLRIGPYSWTPFPHVDFWLHQDDKQILENLSTSPLAEPPHFVEHIRSTLMFLKKHPSPAHTLFSGNKALLYKKNEDGLWEKISSPGS [NTAN1]
a: 0.176

q: Bench note: what solubility change mitosis (log2) did MVVFGYEAGTKPRDSGVVPVGTEEAPKVFKMAASMHGQPSPSLEDAKLRRPMVIEIIEKNFDYLRKEMTQNIYQMATFGTTAGFSGIFSNFLFRRCFKVKHDALKTYASLATLPFLSTVVTDKLFVIDALYSDNISKENCVFRSSLIGIVCGVFYPSSLAFTKNGRLATKYHTVPLPPKGRVLIHWMTLCQTQMKLMAIPLVFQIMFGILNGLYHYAVFEETLEKTIHEE [TMEM126B] show?
a: 0.00498

---

Tested on: HeLa Kyoto
assayComment: thermal stability score vs G1/S (z-score of summed log2 fold changes over temperatures); higher = more thermally stable than in G1/S
recordedConditions: cell cycle stage: early G1 (4.5 h after nocodazole release)
Below, each of the sequences is paired with its reported thermal stability score value.
Give the value as a plain number.

Worked cases, answers included:
# chain, testSystem, thermal stability score
records = [
    ("MFKNTFQSGFLSILYSIGSKPLQIWDKKVRNGHIKRITDNDIQSLVLEIEGTNVSTTYITCPADPKKTLGIKLPFLVMIIKNLKKYFTFEVQVLDDKNVRRRFRASNYQSTTRVKPFICTMPMRLDDGWNQIQFNLLDFTRRAYGTNYIETLRVQIHANCRIRRVYFSDRLYSEDELPAEFKLYLPVQNKAKQ [CFAP20]", "HeLa Kyoto", -0.133),
    ("MTPLCPRPALCYHFLTSLLRSAMQNARGARQRAEAAVLSGPGPPLGRAAQHGIPRPLSSAGRLSQGCRGASTVGAAGWKGELPKAGGSPAPGPETPAISPSKRARPAEVGGMQLRFARLSEHATAPTRGSARAAGYDLYSAYDYTIPPMEKAVVKTDIQIALPSGCYGRVAPRSGLAAKHFIDVGAGVIDEDYRGNVGVVLFNFGKEKFEVKKGDRIAQLICERIFYPEIEEVQALDDTERGSGGFGSTGKN [DUT]", "HeLa Kyoto", 0.243),
]

Kindly consider the entry below.
q: Consider the sequence shown here: MAAPGLRLGAGRLFEMPAVLERLSRYNSTSQAFAEVLRLPKQQLRKLLYPLQEVERFLAPYGRQDLHLRIFDPSPEDIARADNIFTATERNRIDYVSSAVRIDHAPDLPRPEVCFIGRSNVGKSSLIKALFSLAPEVEVRVSKKPGHTKKMNFFKVGKHFTVVDMPGYGFRAPEDFVDMVETYLKERRNLKRTFLLVDSVVGIQKTDNIAIEMCEEFALPYVIVLTKIDKSSKGHLLKQVLQIQKFVNMKTQGCFPQLFPVSAVTFSGIHLLRCFIASVTGSLD [GTPBP8] What is its recorded thermal stability score?
a: -0.696
